Where these numbers come from: PubChem BioAssay (NCI)

Test system: SN12C renal
Assay: NCI-60 one-dose screen, 48 h (100 = growth as untreated, 0 = no growth, -100 = all killed)
Details: 10 µM unless noted
Compounds without any hit were thinned out: in the full panel of roughly 83,000, 20% have a hit.
Decide using growth: a value greater than or equal to 70% is YES, a smaller one is NO.

Query block: Check if growth >= 70% (inclusive). Item: Cc1ccc(C)c(-n2c(-c3ccc(Br)cc3)csc2=NC(=O)c2ccccc2F)c1
Result block: YES

Query block: Next entry: C=C1C(=O)O[C@H]2[C@H]1CC/C(COC(=O)NCc1ccc(Cn3c(=O)sn(-c4ccc(OC)cc4)c3=O)cc1)=C\CC[C@@]1(C)O[C@@H]21
Result block: NO

Query block: Next entry: COC(=O)C1=C(C)NC(C)=C(C(=O)OCC(C)C)C1c1ccccc1[N+](=O)[O-] (centres undefined)
Result block: NO

Query block: Next entry: CCn1c2ccc(O)cc2c2c(C)c3c[n+](C(C)C)ccc3c(C)c21
Result block: NO

Query block: Next entry: CCOC(=O)n1cc(-c2nonc2-c2cn(C)c3ccccc23)c2ccccc21
Result block: NO

Query block: Next entry: Cc1cccc(NC(=O)CSc2nc3ccc([N+](=O)[O-])cc3[nH]2)c1
Result block: YES

Query block: Next entry: CCCCN1C(=O)/C(=c2\sc3n(c2=O)NC2C(N=3)N(CC)C(=O)N2CC)c2ccccc21 (centres undefined)
Result block: NO

Query block: Next entry: COc1ccc(OC)c(Nc2nnc(-c3ccc(Cl)cc3)o2)c1
Result block: YES

Query block: Next entry: COc1cc(/C=C\c2cc(/C=C\c3ccc(O)c(OC)c3)n(C(=O)CNc3ccc(Cl)cc3)n2)ccc1O
Result block: NO

Query block: Next entry: Fc1ccc(COc2ccc(Nc3ncnc4sc5c(c34)CCCC5)cc2)cc1
Result block: YES

Query block: Next entry: COc1ccc(C(c2cc(OC)c(OC)c(OC)c2)N2CCN(Cc3ccccc3)CC2)cc1 (centres undefined)
Result block: YES

Query block: Next entry: CN(C)c1ccc(-c2cc(-c3ccc(Nc4nc(Nc5ccc(Cl)cc5)nc(Nc5ccc(Cl)cc5)n4)cc3)nc(N)c2C#N)cc1
Result block: YES

Query block: Next entry: COCCCOc1cc(C[C@@H](C[C@H](N)[C@@H](O)C[C@H](C(=O)NCC(C)(C)C(N)=O)C(C)C)C(C)C)ccc1OC
Result block: YES

Query block: Next entry: O=C1OCC2=C1C(c1cccc(F)c1)c1cc3c(cc1N2CCO)OCO3 (centres undefined)
Result block: NO

Query block: Next entry: O=C1/C(=C/c2cccc([N+](=O)[O-])c2)COc2ccc(O)cc21
Result block: NO

Query block: Next entry: COc1ccc(Cl)cc1Nc1nc(C(F)(F)F)ccc1C(=O)N/N=C/c1ccccc1Cl
Result block: NO

Query block: Next entry: N#Cc1c(N2CCOCC2)nc(=S)[nH]c1-c1ccccc1
Result block: YES

Query block: Next entry: CCOC(=O)c1c(C)nc2c(c1N)CC(=O)N2Cc1cc(OC)c(OC)c(OC)c1
Result block: YES

Query block: Next entry: COc1ccc(-c2ccc(=O)oc2C#Cc2cc(OC)c(OC)c(OC)c2)cc1O
Result block: NO

====

Tested on: HCC-2998 colon
Experiment: NCI-60 one-dose screen, 48 h (100 = growth as untreated, 0 = no growth, -100 = all killed)
Conditions: 10 µM unless noted
Compounds without any hit were thinned out: in the full panel of roughly 83,000, 20% have a hit.
Define the label as T when growth is strictly less than 70% and as F in all remaining cases.

Query block: Strictly below 70%: is that where growth of CCN=C1C=CC(=C(c2ccc(N(C)C)cc2)c2ccc(N(C)C)cc2)c2ccccc21 sits?
Result block: T

Query block: Next entry: CN1C(=O)/C(=C/c2ccc(C(=O)Nc3ncc(Cc4ccc(F)cc4)s3)cc2)SC1=S
Result block: T

Query block: Next entry: COc1ccc(-c2oc(=O)ccc2-c2cc(OC)c(OC)c(OC)c2)cc1O
Result block: F

Query block: Next entry: Cc1ccc2[nH]c(-c3ccc(S(C)(=O)=O)cc3)c(/C=N/N=C(N)N)c2c1
Result block: F

Query block: Next entry: COc1ccc2nc3ccccc3c(NCc3ccccc3)c2c1
Result block: T

Query block: Next entry: COC(=O)/C(CCC=C(C)C)=C1\[C@@H](OC(C)=O)C[C@@]2(C)[C@H]1CC(=O)[C@H]1[C@@]3(C)CCC(N4CCCC4)[C@@H](C)[C@@H]3CC[C@@]12C (some centres undefined)
Result block: F

Query block: Next entry: COc1ccc2[nH]cc(-c3nc(-c4cn(C)c5ccncc45)cs3)c2c1
Result block: T

Query block: Next entry: O=C(Cn1nnc([N+](=O)[O-])n1)c1ccccc1
Result block: F

Query block: Next entry: COc1cccc2c(N=NC(=O)c3ccc(S(N)(=O)=O)cc3)c(O)[nH]c12
Result block: F
